- experimentalSystem: UniProt:D2K8K8
- Sequence (D2K8K8 entry or part of it): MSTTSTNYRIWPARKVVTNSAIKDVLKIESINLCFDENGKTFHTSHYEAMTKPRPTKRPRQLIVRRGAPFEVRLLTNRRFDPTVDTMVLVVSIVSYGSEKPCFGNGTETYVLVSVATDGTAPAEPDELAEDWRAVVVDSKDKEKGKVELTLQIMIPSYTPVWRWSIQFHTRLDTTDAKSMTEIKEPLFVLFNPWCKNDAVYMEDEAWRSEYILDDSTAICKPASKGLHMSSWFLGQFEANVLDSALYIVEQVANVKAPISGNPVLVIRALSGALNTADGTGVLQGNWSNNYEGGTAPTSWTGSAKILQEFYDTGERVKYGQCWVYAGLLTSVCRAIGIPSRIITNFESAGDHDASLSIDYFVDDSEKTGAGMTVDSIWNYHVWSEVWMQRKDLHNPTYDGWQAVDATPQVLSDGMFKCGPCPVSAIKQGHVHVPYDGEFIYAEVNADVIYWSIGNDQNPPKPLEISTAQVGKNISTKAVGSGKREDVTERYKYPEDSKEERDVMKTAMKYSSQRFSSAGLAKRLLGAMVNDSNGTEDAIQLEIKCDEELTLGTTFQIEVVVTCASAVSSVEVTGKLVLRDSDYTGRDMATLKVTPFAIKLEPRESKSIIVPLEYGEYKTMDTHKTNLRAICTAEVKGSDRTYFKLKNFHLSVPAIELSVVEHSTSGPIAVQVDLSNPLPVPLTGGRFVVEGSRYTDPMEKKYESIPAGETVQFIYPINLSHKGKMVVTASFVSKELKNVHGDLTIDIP
- assayOverview: biochemical
- cond: dose–response, 27 dihydroisoxazole inhibitors; read-out: IC50 (Supplementary Table 3, AgTG3)
reportedProperty: IC50 (µM)
The response must be a number in µM with no trailing unit.

### Prompt Consider the compound `O=C(N[C@@H](Cc1c[nH]c2ccc(F)cc12)C(=O)NC[C@@H]1CC(Br)=NO1)OCc1ccnc2ccccc12` . State its measured IC50.
### Response 12

### Prompt Write down IC50 measured for item O=C(N[C@@H](Cc1ccccc1F)C(=O)NC[C@@H]1CC(Br)=NO1)OCc1cnc2ccccc2c1 [Compound 8]
### Response 28

### Prompt Item C[C@@H](c1ccccc1)[C@H](NC(=O)OCc1cnc2ccccc2c1)C(=O)NC[C@@H]1CC(Br)=NO1 [Compound D94] : provide IC50
### Response 84
